Target: S100G
Experiment: FP; direct
Reported pKd is given for each of the following binders.
Please report pKd as the negative decimal logarithm of the molar concentration, giving only the number.

[[record]]
binder = "RRLLFYKYVYKR [NCX1 (254-265) peptide]"
measurednumber = 4.62


Moving on to the next binder.
The recorded pKd for RKLQRELEDATETADAMNREVSSLKNKLRRGDLPFVVPRRMARK [NMIIA (1894-1937) peptide] is 4.68
